Hey, just so you know, these numbers are from PubChem BioAssay.

tested_system: Single-stranded DNA-binding protein (Escherichia coli (strain K12))
protocol_notes: E. coli SSB displacement from DNA, counter-screen for HCV NS3 helicase inhibitor project, biochemical, fluorescence polarization, NIH Clinical Collection (AID 743271)
particulars: stronger effect = higher value, concentration not given here
The source made the active and inactive calls. Cut-off read from the data, not from the text of the source: active = inhibition above about 28%; inactive = the rest.
// reported inhibition for each item listed

Solved cases (5 shown):
CCN(CC)CC(=O)Nc1c(C)cccc1C ... -0.87% (inactive)
CCS(=O)(=O)CCn1c([N+](=O)[O-])cnc1C ... 1.18% (inactive)
c1ccc(-c2ccc(C(c3ccccc3)n3ccnc3)cc2)cc1 (configuration not stated) ... 8.37% (inactive)
C[C@]12CCC(=O)C=C1CC[C@@H]1[C@@H]2[C@@H](O)C[C@@]2(C)[C@H]1CC[C@]2(O)C(=O)COC(=O)CCC(=O)O ... -0.48% (inactive)
CC1=NS(=O)(=O)c2cc(Cl)ccc2N1 ... 4.52% (inactive)

query: I am curious: what inhibition value has been reported for CN(C)CCC[C@@]1(c2ccc(F)cc2)OCc2cc(C#N)ccc21 ?
result: 6.83% (inactive)

query: I am curious: what inhibition value has been reported for CCOC(=O)C1=C(C)NC(C)=C(C(=O)OC)C1c1cccc([N+](=O)[O-])c1 (configuration not stated) ?
result: 8.37% (inactive)

query: I am curious: what inhibition value has been reported for CCC(=O)O[C@]1(C(=O)CCl)[C@@H](C)C[C@H]2[C@@H]3CCC4=CC(=O)C=C[C@]4(C)[C@@]3(F)[C@@H](O)C[C@@]21C ?
result: 2.57% (inactive)

query: I am curious: what inhibition value has been reported for c1ccc2c(c1)CCCC2C1=NCCN1 (configuration not stated) ?
result: -0.48% (inactive)

query: I am curious: what inhibition value has been reported for CC[C@H](C)C(=O)O[C@H]1C[C@@H](C)C=C2C=C[C@H](C)[C@H](CC[C@@H]3C[C@@H](O)CC(=O)O3)[C@H]21 ?
result: 3.34% (inactive)

query: I am curious: what inhibition value has been reported for CCCN1C[C@H](CSC)C[C@@H]2c3cccc4[nH]cc(c34)C[C@H]21 ?
result: 10.6% (inactive)

query: I am curious: what inhibition value has been reported for CC(C)NCC(O)c1ccc(O)c(O)c1 (configuration not stated) ?
result: -0.48% (inactive)

###

protocol_notes: IRF3 reporter activation in THP-1 macrophages, cell-based, PMA-stimulated THP-1, luminescence (AID 1053176)
particulars: PMA-differentiated THP-1, IRF3 reporter luminescence; stronger effect = higher value
Active and inactive are the calls of the source. The rule behind the calls is not given here.
// reported fraction signal for each item listed

CC1=C(C(=O)Nc2ccc3n[nH]c(C)c3c2)C(c2ccc(C(F)(F)F)cc2)CC(=O)N1 (centres undefined) ... -0.006 (inactive)

Then there is this molecule:
query: I am curious: what fraction signal value has been reported for Cc1nnc(-c2ccc(C)c(-c3ccc(C(=O)Nc4cccc(C#N)c4)cc3)c2)o1 ?
result: -0.004 (inactive)

###

protocol_notes: suppressors of polyglutamine aggregation in yeast, 75Q-TubH (AID 1616)
particulars: S. cerevisiae 75Q-TubH polyglutamine aggregation suppression; stronger effect = higher value
// reported aggregation suppression score for each item listed
API note: the answer field is a bare number with no unit suffix.

Solved cases (5 shown):
CC(C)NCC(O)c1ccc(O)c(O)c1 (stereo unspecified) ... 1.28
Cc1ccccc1C(OCCN(C)C)c1ccccc1 (stereo unspecified) ... 1.25
Nc1ccc(S(=O)(=O)c2ccc(N)cc2)cc1 ... 1.25
Nc1ncn([C@@H]2O[C@H](CO)[C@@H](O)[C@H]2O)c(=O)n1 ... 1.25
CN1C(C(=O)Nc2ccccn2)=C(O)c2ccccc2S1(=O)=O ... 0.134

Then there is this compound:
query: I am curious: what aggregation suppression score value has been reported for CC(COc1ccccc1)N(CCCl)Cc1ccccc1 (stereo unspecified) ?
result: 0.789
